Assay: Half life in mini pig at 0.5 mg/kg, iv
Type: ADME, organism-based, Sus scrofa
Settings: in vivo
Parameter: half-life (h)
# output: bare number, implied unit h

Exam item: Dear colleague, I am looking for the recorded half-life of the following molecule: `CC(C)N(C)c1ccc([C@H]2C[C@@]3(C)[C@@H](CC[C@@]3(O)C#CC(C)(C)C)[C@@H]3CCC4=CC(=O)CC[C@@H]4[C@H]32)cc1`
Marked response: 12.2

---

Test: AUC in mouse at 5 mg/kg, po
Type: ADME, organism-based
Conditions: in vivo
Parameter: AUC (ng·h/mL)
Answer in ng·h/mL, number only, no unit symbol.

Exam item: Any idea what its AUC is? The molecule is `CC(C)N(C)c1ccc([C@H]2C[C@@]3(C)[C@@H](CC[C@@]3(O)C#CC(C)(C)C)[C@@H]3CCC4=CC(=O)CC[C@@H]4[C@H]32)cc1`
Marked response: 644

---

Target: Glucocorticoid receptor (Canis lupus familiaris, UniProt A0A8C0QLS2)
Sequence (A0A8C0QLS2 whole entry): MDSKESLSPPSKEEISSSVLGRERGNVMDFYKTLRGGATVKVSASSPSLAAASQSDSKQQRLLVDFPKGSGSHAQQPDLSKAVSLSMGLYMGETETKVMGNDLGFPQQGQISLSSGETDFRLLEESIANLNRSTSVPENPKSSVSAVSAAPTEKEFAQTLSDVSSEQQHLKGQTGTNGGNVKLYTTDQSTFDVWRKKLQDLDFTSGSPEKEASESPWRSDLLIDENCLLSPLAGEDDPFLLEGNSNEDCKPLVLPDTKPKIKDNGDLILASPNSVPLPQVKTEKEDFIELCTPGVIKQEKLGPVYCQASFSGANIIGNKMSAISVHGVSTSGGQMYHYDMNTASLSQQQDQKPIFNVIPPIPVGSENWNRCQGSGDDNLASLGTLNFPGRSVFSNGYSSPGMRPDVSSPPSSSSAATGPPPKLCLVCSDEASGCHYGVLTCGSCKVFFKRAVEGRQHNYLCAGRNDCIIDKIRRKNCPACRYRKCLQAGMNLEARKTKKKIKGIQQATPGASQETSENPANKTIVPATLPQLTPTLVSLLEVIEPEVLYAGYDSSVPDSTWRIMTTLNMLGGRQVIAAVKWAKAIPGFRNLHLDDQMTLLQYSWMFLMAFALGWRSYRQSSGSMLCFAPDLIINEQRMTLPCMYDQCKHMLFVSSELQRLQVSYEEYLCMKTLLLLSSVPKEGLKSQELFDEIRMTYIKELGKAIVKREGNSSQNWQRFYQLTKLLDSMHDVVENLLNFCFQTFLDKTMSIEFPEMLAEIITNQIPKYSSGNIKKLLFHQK
Test: Antagonist activity at GR in dog PBMC assessed as reduction in dexamethasone-induced FKBP5 gene expression incubated for 6 hrs by RT-qPCR method
Assay type: cell-based
Kindly supply the reported IC50 values for the records listed here.
Give a bare numeral; the unit nM is implied.

Exam item: Given `CC(C)N(C)c1ccc([C@H]2C[C@@]3(C)[C@@H](CC[C@@]3(O)C#CC(C)(C)C)[C@@H]3CCC4=CC(=O)CC[C@@H]4[C@H]32)cc1` , state its recorded IC50.
Marked response: 24.5

Exam item: Reported IC50, compound `CC#C[C@]1(O)CC[C@H]2[C@@H]3CCC4=CC(=O)CCC4=C3[C@@H](c3ccc(N(C)C)cc3)C[C@@]21C` : ____
Marked response: 20.2
